experiment: Octreotide pharmacokinetics after s.c. and oral delivery; details: mouse, in vivo, po, 1 mg/kg, CL, oral 3.0% DDM
ASSAY METRIC: CL/F (mL/min)
Give the value in mL/min but do not write mL/min after it.

The molecule identified as C[C@@H](O)[C@@H]1NC(=O)[C@H](CCCCN)NC(=O)[C@@H](Cc2c[nH]c3ccccc23)NC(=O)[C@H](Cc2ccccc2)NC(=O)[C@@H](NC(=O)[C@H](N)Cc2ccccc2)CSSC[C@@H](C(=O)N[C@H](CO)[C@@H](C)O)NC1=O (relative stereo) [Octreotide] registered its CL/F at 54900

###

assay: Octreotide pharmacokinetics after s.c. and oral delivery; conditions: mouse, in vivo, po, 1 mg/kg, CL, oral […] DDM
ASSAY METRIC: CL/F (mL/min)
Give the value in mL/min but do not write mL/min after it.

The compound identified as C[C@@H](O)[C@@H]1NC(=O)[C@H](CCCCN)NC(=O)[C@@H](Cc2c[nH]c3ccccc23)NC(=O)[C@H](Cc2ccccc2)NC(=O)[C@@H](NC(=O)[C@H](N)Cc2ccccc2)CSSC[C@@H](C(=O)N[C@H](CO)[C@@H](C)O)NC1=O (relative stereo) [Octreotide] registered its CL/F at 28400

###

experiment: clinical; settings: human, in vivo, 10 mg
ASSAY METRIC: Tmax

The compound identified as Cc1cc2c(s1)Nc1ccccc1N=C2N1CCN(C)CC1 registered its Tmax at 15 to 45 min

###

experiment: Raloxifene pharmacokinetics; format: in vivo; conditions: human, in vivo; fast-dispersing 60 mg tablet (without alkylsaccharide); read-out: absolute bioavailability
ASSAY METRIC: bioavailability

The compound identified as O=C(c1ccc(OCCN2CCCCC2)cc1)c1c(-c2ccc(O)cc2)sc2cc(O)ccc12 registered its bioavailability at ~2%

###

experiment: clinical; conditions: human, in vivo, po
ASSAY METRIC: Tmax

The compound identified as Cc1cc2c(s1)Nc1ccccc1N=C2N1CCN(C)CC1 [olanzapine] registered its Tmax at ~6 h

###

assay: clinical; conditions: human, in vivo, po
ASSAY METRIC: hepatic extraction ratio

The compound identified as Cc1cc2c(s1)Nc1ccccc1N=C2N1CCN(C)CC1 registered its hepatic extraction ratio at ~0.4
